Recorded Activity for the following compounds
- Test system: Rattus norvegicus
- Protocol Description: Antihypertensive activity rating in conscious SHR after 1 hr post dose at 3 mg/kg (po)
- Type: functional

Below, 6 compounds whose answers are already recorded.
COc1cc2nc(N3CCN(C(=O)c4ccco4)CC3)nc(N)c2cc1OC.Cl [PRAZOSIN HYDROCHLORIDE]; 2
CCOc1ccc(/C=C/C(=O)N2CCN(c3nc(N)c4cc(OC)c(OC)cc4n3)CC2)cc1; 0
COc1cc2nc(N3CCN(C(=O)/C=C/c4ccccc4)CC3)nc(N)c2cc1OC; 2
COc1cc2nc(N3CCN(C(=O)/C=C/c4ccoc4)CC3)nc(N)c2cc1OC; 1
COc1ccc(/C=C/C(=O)N2CCN(c3nc(N)c4cc(OC)c(OC)cc4n3)CC2)cc1; 0
COc1cc2nc(N3CCN(C(=O)/C=C/c4ccc(Cl)o4)CC3)nc(N)c2cc1OC.Cl; 1

Task: Entry COc1cc2nc(N3CCN(C(=O)/C(C)=C/c4ccco4)CC3)nc(N)c2cc1OC.Cl : reported Activity = ?
Result: 1

Task: Entry COc1cc2nc(N3CCN(C(=O)/C=C/c4ccc(C)cc4)CC3)nc(N)c2cc1OC.Cl : reported Activity = ?
Result: 0

Task: Entry COc1cc2nc(N3CCN(C(=O)/C(C)=C/c4ccccc4)CC3)nc(N)c2cc1OC.Cl : reported Activity = ?
Result: 1

These measurements were taken from ChEMBL document CHEMBL1122489.
